# test description: Transdermal delivery of melatonin: plasma level of melatonin after applying composition to skin of a subject
# study conditions: human, plasma, topical, Plasma level of melatonin, salt of tryptophan isopropyl ester, A− = Lactate ion, 208.11 mM, 0.30 mL applied, 4 hr after transdermal administration
assay endpoint: concentration at 4 h (ng/mL)
Please respond with the number in ng/mL and leave the unit unwritten.

Lab note: measured concentration at 4 h of COc1ccc2[nH]cc(CCNC(C)=O)c2c1 [Melatonin] was 1.9

* * *

# test description: Transdermal delivery of melatonin: plasma level of melatonin after applying composition to skin of a subject
# study conditions: human, plasma, topical, 3 mg, Plasma level of melatonin, Leucine isopropyl ester hydrochloride 333.76 mM, 0.60 mL applied to skin, 1 hr after transdermal administration
assay endpoint: concentration at 1 h (ng/mL)
Give just the number in ng/mL; leave the unit off.

concentration at 1 h reading for COc1ccc2[nH]cc(CCNC(C)=O)c2c1 [Melatonin] : 1.7

* * *

# test description: Transdermal delivery of melatonin: plasma level of melatonin after applying composition to skin of a subject
# study conditions: human, plasma, topical, Plasma level of melatonin, 3-(Diethylamino)propyl 2-acetoxybenzoate hydrochloride 212.24 mM, 0.375 mL applied to skin, 8 hr after transdermal administration
assay endpoint: concentration at 8 h (ng/mL)
Just the number in ng/mL, nothing appended.

Reported concentration at 8 h of COc1ccc2[nH]cc(CCNC(C)=O)c2c1 : 2.1

* * *

# test description: Transdermal delivery of melatonin: plasma level of melatonin after applying composition to skin of a subject
# study conditions: human, plasma, topical, 3 mg, Plasma level of melatonin, salt of tryptophan isopropyl ester, A− = Benzoate ion, 189.98 mM, 0.30 mL applied, 4 hr after transdermal administration
assay endpoint: concentration at 4 h (ng/mL)
Return type: number; implicit unit ng/mL.

Reported concentration at 4 h of COc1ccc2[nH]cc(CCNC(C)=O)c2c1 : 2

* * *

# test description: clinical
# study conditions: human, plasma, topical, 3 mg
assay endpoint: concentration at 4 hr (ng/mL)
Report the figure in ng/mL without appending any unit label.

Summary for this molecule, COc1ccc2[nH]cc(CCNC(C)=O)c2c1 : concentration at 4 hr is 1.8

* * *

# test description: Transdermal delivery of melatonin: plasma level of melatonin after applying composition to skin of a subject
# study conditions: human, plasma, topical, 2 mL of […] melatonin suspension in water, Plasma level of melatonin, Table 21 control, A− N/A, helper esters 0 mM, 2.0 mL applied, 4 hr after transdermal administration
assay endpoint: concentration at 4 h
Report the figure along with its unit, number first.

Entry under test: COc1ccc2[nH]cc(CCNC(C)=O)c2c1 . Its concentration at 4 h was 0.1 ng/mL

* * *

# test description: Transdermal delivery of melatonin: plasma level of melatonin after applying composition to skin of a subject
# study conditions: human, plasma, topical, 3 mg, Plasma level of melatonin, salt of tryptophan isopropyl ester, A− = F^−, 262.85 mM, 0.30 mL applied, 8 hr after transdermal administration
assay endpoint: concentration at 8 h

Form: compound = COc1ccc2[nH]cc(CCNC(C)=O)c2c1 [Melatonin] ; concentration at 8 h = 2.6 ng/mL

* * *

# test description: Transdermal delivery of melatonin: plasma level of melatonin after applying composition to skin of a subject
# study conditions: human, plasma, topical, 3 mg, Plasma level of melatonin, Tyrosine propyl ester 269.5 mM, 0.30 mL applied to skin, 1 hr after transdermal administration
assay endpoint: concentration at 1 hr (ng/mL)
Record the value in ng/mL, omitting the unit from your answer.

Entry COc1ccc2[nH]cc(CCNC(C)=O)c2c1 — recorded concentration at 1 hr = 2

* * *

# test description: Transdermal delivery of melatonin: plasma level of melatonin after applying composition to skin of a subject
# study conditions: human, plasma, topical, Plasma level of melatonin, Proline isopropyl ester hydrochloride 361.41 mM, 0.60 mL applied to skin, 4 hr after transdermal administration
assay endpoint: concentration at 4 h (ng/mL)
Answer with a number only, understood to be in ng/mL.

Note to self: concentration at 4 h recorded for COc1ccc2[nH]cc(CCNC(C)=O)c2c1 was 1.5

* * *

In this section, each of the compounds is paired with its reported Skin penetration rate of AI compound.
# Test system: human skin tissue
# test description: Penetration rate of AI compound in AI-helper composition through human skin in vitro, modified Franz cells
# Type: in vitro ADME
# study conditions: with L-isoleucine isopropyl ester hydrochloride 6 % w/v in water; AI compound 0.5 % w/v; 25 °C
# Description: Penetration rate of AI compound in the AI-helper composition through human skin were measured in vitro by modified Franz cells. A Franz cell had two chambers: the top sample chamber and the bottom receiving chamber. The human skin tissue (450-500 μm thick) that separated the top and the receiving chambers was isolated from the anterior or posterior thigh areas.
Reply numerically in μg/cm^2/h, unit not repeated.

Oc1ccc(C=Cc2cc(O)cc(O)c2)cc1    16.236
CC1=C(/C=C/C(C)=C/C=C/C(C)=C/C=C/C=C(C)/C=C/C=C(C)/C=C/C2=C(C)C(=O)[C@@H](O)CC2(C)C)C(C)(C)C[C@H](O)C1=O    11.431
O=C1O[C@H]([C@@H](O)CO)C(O)=C1O    8.369

Record summary for O=C(O)CCCCC1CCSS1 (stereo not shown) : reported Skin penetration rate of AI compound = 28.897

* * *

# test description: Transdermal delivery of melatonin: plasma level of melatonin after applying composition to skin of a subject
# study conditions: human, plasma, topical, 3 mg, Plasma level of melatonin, Tyrosine pentyl ester 243.25 mM, 0.30 mL applied to skin, 8 hr after transdermal administration
assay endpoint: concentration at 8 hr

Form: compound = COc1ccc2[nH]cc(CCNC(C)=O)c2c1 ; concentration at 8 hr = 2.1 ng/mL

* * *

# test description: Transdermal delivery of melatonin: plasma level of melatonin after applying composition to skin of a subject
# study conditions: human, plasma, topical, 3 mg, Plasma level of melatonin, Leucine isopropyl ester hydrochloride 333.76 mM, 0.60 mL applied to skin, 8 hr after transdermal administration
assay endpoint: concentration at 8 h (ng/mL)
Write the number in ng/mL without appending the unit.

Sample COc1ccc2[nH]cc(CCNC(C)=O)c2c1 [Melatonin] ; concentration at 8 h observed: 1.8

* * *

# test description: Transdermal delivery of melatonin: plasma level of melatonin after applying composition to skin of a subject
# study conditions: human, plasma, topical, 3 mg, Plasma level of melatonin, Phenylalanine octyl ester hydrochloride 223.02 mM, 0.60 mL applied to skin, 8 hr after transdermal administration
assay endpoint: concentration at 8 h (ng/mL)
The reply should be a number in ng/mL, with the unit left off.

Input COc1ccc2[nH]cc(CCNC(C)=O)c2c1 . Output concentration at 8 h: 1.2

* * *

# test description: Transdermal delivery of melatonin: plasma level of melatonin after applying composition to skin of a subject
# study conditions: human, plasma, topical, Plasma level of melatonin, salt of tyrosine isopropyl ester, A− = AcO^−, 245.0 mM, 0.30 mL applied, 1 hr after transdermal administration
assay endpoint: concentration at 1 h (ng/mL)
Return type: number; implicit unit ng/mL.

Lab note: COc1ccc2[nH]cc(CCNC(C)=O)c2c1 gave concentration at 1 h of 1.8

* * *

# test description: Transdermal delivery of melatonin: plasma level of melatonin after applying composition to skin of a subject
# study conditions: human, plasma, topical, Plasma level of melatonin, 3-(Diethylamino)propyl 2-acetoxybenzoate hydrochloride 212.24 mM, 0.375 mL applied to skin, 4 hr after transdermal administration
assay endpoint: concentration at 4 h (ng/mL)
Output spec: scalar in ng/mL, unitless text.

Recorded concentration at 4 h (compound COc1ccc2[nH]cc(CCNC(C)=O)c2c1 ): 2.3

* * *

# test description: Transdermal delivery of melatonin: plasma level of melatonin after applying composition to skin of a subject
# study conditions: human, plasma, topical, 3 mg, Plasma level of melatonin, Helper esters: None (0 mM), 2.0 mL applied to skin, 2 hr after transdermal administration
assay endpoint: concentration at 2 h (ng/mL)
# number only, unit ng/mL dropped from output

The reported value for COc1ccc2[nH]cc(CCNC(C)=O)c2c1 [Melatonin] in terms of concentration at 2 h is 0.1

* * *

# test description: Transdermal delivery of melatonin: plasma level of melatonin after applying composition to skin of a subject
# study conditions: human, plasma, topical, Plasma level of melatonin, salt of tyrosine isopropyl ester, A− = I^−, 199.43 mM, 0.30 mL applied, 2 hr after transdermal administration
assay endpoint: concentration at 2 h (ng/mL)
Give the value, in units of ng/mL, as a plain number.

Kindly note the recorded concentration at 2 h for COc1ccc2[nH]cc(CCNC(C)=O)c2c1 , which is 2.3

* * *

# test description: Transdermal delivery of melatonin: plasma level of melatonin after applying composition to skin of a subject
# study conditions: human, plasma, topical, 3 mg, Plasma level of melatonin, Tryptophan ethyl ester hydrochloride 260.47 mM, 0.3 mL applied to skin, 1 hr after transdermal administration
assay endpoint: concentration at 1 h
Include the unit right after the number.

The value of concentration at 1 h measured for the molecule COc1ccc2[nH]cc(CCNC(C)=O)c2c1 turned out to be 2 ng/mL
